- measured.target: Heat shock protein HSP 90-alpha (Homo sapiens)
- experiment: Inhibition of recombinant Homo sapiens (human) Hsp90 alpha ATPase activity assessed as inorganic phosphate release at 10 uM by malachite green colorimetric method
Recorded measurements of inhibition, one per entry
Your answer is read as %, so omit the unit and give the number.

Consider the reported inhibition for these compounds:
> print(dat)
                               given.smiles  measured.value
1  Cc1cccc(NC(=O)c2ccc[n+](CC(=O)Nc3ccc(Cl)cc3)c2)c1              24
2  CSc1ccc(NC(=O)C[n+]2cccc(C(=O)Nc3ccc(Cl)cc3)c2)cc1              24
3  Cc1ccc(NC(=O)C[n+]2cccc(C(=O)Nc3ccc([N+](=O)[O-])cc3)c2)cc1              21
4  O=C(C[n+]1cccc(C(=O)Nc2ccc(Cl)cc2)c1)Nc1ccc([N+](=O)[O-])cc1              24
5  CSc1ccc(NC(=O)c2ccc[n+](CC(=O)Nc3ccc(C)cc3)c2)cc1              18
6  CC(=O)NS(=O)(=O)c1ccc(NC(=O)C[n+]2ccccc2)cc1              46

Reported inhibition for NC(=O)c1ccc[n+](CC(=O)Nc2ccc(S(N)(=O)=O)cc2)c1 : what is it?
32

Repeat with O=C(C[n+]1cccc(C(=O)Nc2ccccc2)c1)Nc1ccc([N+](=O)[O-])cc1
11

Repeat with NS(=O)(=O)c1ccc(NC(=O)C[n+]2cccc(C(=O)Nc3ccccc3)c2)cc1
47
